Biological target: ectodomain of murine CD98hc (mouse) (UniProt P10852)
Sequence (P10852 100-526): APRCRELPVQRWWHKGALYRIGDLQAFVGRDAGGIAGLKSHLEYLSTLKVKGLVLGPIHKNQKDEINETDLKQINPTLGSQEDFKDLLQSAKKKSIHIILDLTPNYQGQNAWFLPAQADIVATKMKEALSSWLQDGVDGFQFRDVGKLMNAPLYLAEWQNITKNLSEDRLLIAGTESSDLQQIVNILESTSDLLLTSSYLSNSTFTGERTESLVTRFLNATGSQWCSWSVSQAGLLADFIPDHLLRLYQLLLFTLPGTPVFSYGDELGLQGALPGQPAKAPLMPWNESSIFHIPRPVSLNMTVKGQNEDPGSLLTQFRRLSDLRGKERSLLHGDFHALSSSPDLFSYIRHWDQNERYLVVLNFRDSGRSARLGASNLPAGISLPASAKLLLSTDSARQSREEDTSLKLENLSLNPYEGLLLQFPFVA
Assay: ELISA, expression medium of VNAR-hFc on coated protein
Listing: Binding [relative units] (relative units) of selected binders
readout_name: Binding [relative units] (relative units)

VNAR clone F1 fused N-terminally to human IgG1 Fc (VNAR-hFc) (Fc fusion, not shown: a dimerising Fc or GST) ARVDQTPQTITKEEGESLTINCVLRVHGRALASTSWYRKKSGSTREETISKGGRYVETVNSGSKSFSLRINDLTVEDSGTYRCNVYGLSSGDIEGVKKIDVYGDGTAVTVNA :: 0.115
VNAR clone C6 fused N-terminally to human IgG1 Fc (VNAR-hFc) (Fc fusion, not shown: a dimerising Fc or GST) ARVDQTPQTITKETGESLTINCVLRDSNCALSSTYWYRKKSGSTNEALISKGGRYVETVNSGSKSFSLRINDLTVEDSGTYRCNVVYDLRDDCFFRDVYGGGTAVTVNA :: 0.042
VNAR clone G10 fused N-terminally to human IgG1 Fc (VNAR-hFc) (Fc fusion, not shown: a dimerising Fc or GST) ARVDQTPQTITKETGESLTINCVLRDSNCALSSTYWYRKKSGSTNEENISKGGRYVETVNSGSKSFSLKINDLTVEDSGTYRCKVVFKLFSGRACAGEKDVYGGGTVVTVNA :: 0.041
VNAR clone G12 fused N-terminally to human IgG1 Fc (VNAR-hFc) (Fc fusion, not shown: a dimerising Fc or GST) ARVDQTPQTITKETGESLTINCVLRDSNCALSSTYWYRKKSGSTNEALISKGGRYVETVNSGSKSFSLRINDLTVEDSGTYRCNVVQDLRDDCFFRDVYGGGTAVTVNA :: 0.044
VNAR clone H7 fused N-terminally to human IgG1 Fc (VNAR-hFc) (Fc fusion, not shown: a dimerising Fc or GST) ARVDQTPQTITKEEGESLTINCVLRYNNPALASTSWYRKKSGSTREETISKGGRYVETVNSGSKSFSLRINDLTVEDSGTYRCNVYFFPSFLVDKLQSHDVYGDGTAVTVNA :: 0.108
VNAR clone D1 fused N-terminally to human IgG1 Fc (VNAR-hFc) (Fc fusion, not shown: a dimerising Fc or GST) ARVDQTPQTITKEEGESLTINCVLRHNYSALASTSWYRKKSGSTREETISKGGRYVETVNSGSKSFSLRINDLTVEDSGTYRCNVYGISFIEEKIRYDFDVYGDGTAVTVNA :: 0.417
VNAR clone A8 fused N-terminally to human IgG1 Fc (VNAR-hFc) (Fc fusion, not shown: a dimerising Fc or GST) ARVDQTPQTITKEEGESLTINCVLRRNFQLASTSWYRKKSGSTREETISKGGRYVETVNSGSKSFSLRINDLTVEDSGTYRCNVYGFVEFAKNIVEFIDVYGDGTAVTVNA :: 0.135
VNAR clone E12 fused N-terminally to human IgG1 Fc (VNAR-hFc) (Fc fusion, not shown: a dimerising Fc or GST) ARVDQTPQTITKEEGESLTINCVLRTQDPALASTSWYRKKSGSTREETISKGGRYVETVNSGSKSFSLRINDLTVEDSGTYRCNVYFLLAPTKTKLQGIDVYGDGTAVTVNA :: 0.078
VNAR clone B12 fused N-terminally to human IgG1 Fc (VNAR-hFc) (Fc fusion, not shown: a dimerising Fc or GST) ARVDQTPRSVTKETGESLTINCVLRDASYALGSTCWYRKKSGSTNEESISKGGRYVETVNSGSKSFSLRINDLTVEDGGTYRCGVARGWRTLNYLCDVRTGEWSCVWRAAACGDGTAVTVNA :: 0.084
VNAR clone F11 fused N-terminally to human IgG1 Fc (VNAR-hFc) (Fc fusion, not shown: a dimerising Fc or GST) ARVDQTPQTITKEEGESLTINCVLRGEFYALASTSWYRKKSGSTREETISKGGRYVETVNSGSKSFSLRINDLTVEDSGTYRCNVYGYRIFSPEVKGPNDVYGDGTAVTVNA :: 0.096
VNAR clone H6 fused N-terminally to human IgG1 Fc (VNAR-hFc) (Fc fusion, not shown: a dimerising Fc or GST) ARVDQTPQTITKEEGESLTINCVLRTHSNALASTSWYRKKSGSTREETISKGGRYVETVNSGSKSFSLRINDLTVEDSGTYRCNVYAFLEIQPNIYHEFDVYGDGTAVTVNA :: 0.186
VNAR clone G3 fused N-terminally to human IgG1 Fc (VNAR-hFc) (Fc fusion, not shown: a dimerising Fc or GST) ARVDQTPQTITKETGESLTINCVLRDNNCALSTTYWYRKKSGSTNEENISKGGRYVETVNSGSKSFSLRINDLTVEDSGTYRCKVHFFPSFCNSTSIRSVDVYGGGTVVTVNA :: 0.041
VNAR clone H7A fused N-terminally to human IgG1 Fc (VNAR-hFc) (Fc fusion, not shown: a dimerising Fc or GST) PGVDQTEQTIKKEEGESVTIKCVMRVKYPALASTSRYRKKSGSREETISKGGRYVETVNYSSKSISVRINDMTVEDSGRYRCNVYEEYAVDCDALVYQDVYGDGTAVTVNA :: 0.043
VNAR clone G6 fused N-terminally to human IgG1 Fc (VNAR-hFc) (Fc fusion, not shown: a dimerising Fc or GST) ARVDQTPQTITKEEGESLTINCVLRVETRALASTSWYRKKSGSTREETISKGGRYVETVNSGSKSFSLRINDLTVEDSGTYRCNVYIRHYSEFTQAPFRDVYGDGTAVTVNA :: 0.041
VNAR clone H8 fused N-terminally to human IgG1 Fc (VNAR-hFc) (Fc fusion, not shown: a dimerising Fc or GST) ARVDQTPQTITKETGESLTINCVLRDSNCALPSTYWYRKKSGSTNEESISKGGRYVETVNSGSKSFSLRINDLVVEDSGTYRCKVGNYCIRLCYDMKFAVDVYGGGTAVTVNA :: 0.049
